target: PRMT5 (Homo sapiens, UniProt O14744); construct: purchased Viva (custom protein); assay: PRMT5 IC50 assay with no cofactor; type: biochemical; details: read-out: No Co-factor IC50
Sequence (O14744 whole entry): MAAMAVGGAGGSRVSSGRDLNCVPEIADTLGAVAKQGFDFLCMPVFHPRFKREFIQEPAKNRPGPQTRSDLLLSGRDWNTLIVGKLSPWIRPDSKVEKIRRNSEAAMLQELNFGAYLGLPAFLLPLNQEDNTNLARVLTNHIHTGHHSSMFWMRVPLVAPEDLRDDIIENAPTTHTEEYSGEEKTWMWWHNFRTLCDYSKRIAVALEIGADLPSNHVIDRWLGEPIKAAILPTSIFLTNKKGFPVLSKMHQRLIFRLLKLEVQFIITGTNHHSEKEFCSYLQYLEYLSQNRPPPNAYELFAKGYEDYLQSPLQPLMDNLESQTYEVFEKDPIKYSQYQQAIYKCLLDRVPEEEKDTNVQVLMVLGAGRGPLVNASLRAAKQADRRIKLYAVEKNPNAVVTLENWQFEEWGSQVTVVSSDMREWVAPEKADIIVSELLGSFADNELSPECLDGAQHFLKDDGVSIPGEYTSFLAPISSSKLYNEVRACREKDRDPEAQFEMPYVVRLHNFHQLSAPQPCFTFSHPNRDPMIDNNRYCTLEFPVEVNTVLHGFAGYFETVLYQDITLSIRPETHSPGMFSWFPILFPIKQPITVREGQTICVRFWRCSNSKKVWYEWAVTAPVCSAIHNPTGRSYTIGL
Sequence (Q9BQA1 whole entry partner): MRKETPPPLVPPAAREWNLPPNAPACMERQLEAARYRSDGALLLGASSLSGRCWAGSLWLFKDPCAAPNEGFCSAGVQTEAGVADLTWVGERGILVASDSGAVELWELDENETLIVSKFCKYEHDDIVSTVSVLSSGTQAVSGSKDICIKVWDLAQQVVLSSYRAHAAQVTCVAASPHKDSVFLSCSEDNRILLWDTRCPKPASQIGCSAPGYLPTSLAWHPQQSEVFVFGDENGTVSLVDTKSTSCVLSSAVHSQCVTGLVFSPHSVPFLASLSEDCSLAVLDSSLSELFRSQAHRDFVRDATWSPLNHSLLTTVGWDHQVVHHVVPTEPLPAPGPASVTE
pIC50: −log10 of the molar value.
test-readout: pIC50

O=C(NC[C@H](O)CN1CCc2c(ccc(OCc3cnco3)c2Cl)C1)c1cc(NC2CCC2)nc(N2CCOCC2)c1 [Compound 288]
≤ 5.30
Cc1ncoc1COc1ccc2c(c1)CCN(C[C@@H](O)CNC(=O)c1cc(NC3COC3)nc(N3CCN(C(=O)C4CC4)CC3)n1)C2 [Compound 400]
5.30 to 6.30
O=C(NC[C@H](O)CN1CCc2c(ccc(OCc3cnco3)c2Cl)C1)c1ccc(OC2CCN(Cc3ccncc3)CC2)cc1 [Compound 301]
5.30 to 6.30
O=C(NC[C@H](O)CN1CCc2c(ccc(OCc3cnco3)c2Cl)C1)c1ccnc(NC2CC(C(F)F)C2)c1 (stereo partly shown) [Compound 317]
≤ 5.30
O=C(NC[C@H](O)CN1CCc2c(ccc(OCc3cnco3)c2Cl)C1)c1cc(NC2CCC2)nc(N2CCCCC2)c1 [Compound 305]
≤ 5.30

The reported value for CC(C)N1CCN(c2nc(NC3COC3)cc(C(=O)NC[C@H](O)CN3CCc4cc(OCc5cnco5)ccc4C3)n2)CC1 [Compound 296] in terms of pIC50 is 5.30 to 6.30

Sample CC(=O)N1[C@@H]2CC[C@H]1C[C@H](Nc1cc(C(=O)NC[C@H](O)CN3CCc4cc(OCc5ocnc5C)ccc4C3)ccn1)C2 [Compound 645] ; pIC50 observed: 5.30 to 6.30

Form: compound = CC(C)C(=O)N1CCN(c2nc(NC3COC3)cc(C(=O)NC[C@H](O)CN3CCc4cc(OCc5cnco5)ccc4C3)n2)CC1 [Compound 313] ; pIC50 = 5.30 to 6.30

Summary for this compound, CC(=O)N1CCC(Nc2cc(C(=O)NC[C@H](O)CN3CCc4c(ccc(OCc5cnn[nH]5)c4Cl)C3)ncn2)CC1 [Compound 343] : pIC50 is ≤ 5.30

Lab note: CC(=O)N1CCC(Nc2cc(C(=O)NC[C@H](O)CN3CCc4cc(OCc5cnn[nH]5)ccc4C3)ncn2)CC1 [Compound 257] gave pIC50 of ≤ 5.30

Recorded result, CCN1CCN(c2cc(C(=O)NC[C@H](O)CN3CCc4c(ccc(OCc5cnco5)c4Cl)C3)cc(NC3CCC3)n2)CC1 [Compound 299] , pIC50: 5.30 to 6.30

O=C(NC[C@H](O)CN1CCc2c(ccc(OCc3cnco3)c2Cl)C1)c1ccnc(NC2CCC(F)(F)CC2)c1 [Compound 425] has a reported pIC50 of ≤ 5.30

// sample CCC(=O)N1CCN(c2cc(C(=O)NC[C@H](O)CN3CCc4c(ccc(OCc5ocnc5C)c4C)C3)cc(NC3CCC3)n2)CC1 [Compound 417] , its pIC50 was 5.30 to 6.30
